- System: Danio rerio larvae (5 dpf)
- experimentNotes: difference in startle response vs DMSO (percentage points); higher = stronger startle than DMSO
- cond: 10 µM; exposure time 6 h
valueType: difference in startle response

compound: Nc1nc(-n2cc(C(=O)O)c(=O)c3cc(F)c(N4CC(O)C4)c(Cl)c32)c(F)cc1F [Delafloxacin]
endpointValue: 12.8
--
compound: OC[C@H]1O[C@@H](O[C@@H]2[C@@H](CO)OC(O)(CO)[C@H]2O)[C@H](O)[C@@H](O)[C@H]1O (mixture of isomers) [Lactulose]
endpointValue: -1.72
--
compound: CNC(=O)c1ccc(N2C(=S)N(c3ccc(C#N)c(C(F)(F)F)c3)C(=O)C2(C)C)cc1F
endpointValue: 4.28
--
compound: NS(=O)(=O)c1cc2c(cc1Cl)N=CNS2(=O)=O [Chlorothiazide]
endpointValue: -3.29
--
compound: C#CCN[C@@H]1CCc2ccccc21 [Rasagiline]
endpointValue: 1.96
--
compound: C#C[C@]1(O)CC[C@H]2[C@@H]3CCC4=CC(=O)CC[C@@H]4[C@H]3CC[C@@]21CC [Levonorgestrel]
endpointValue: -3.01
--
compound: CCCCC(=O)N(Cc1ccc(-c2ccccc2-c2nnn[nH]2)cc1)[C@H](C(=O)O)C(C)C [Valsartan]
endpointValue: 4.11
--
compound: COc1ccccc1OCCNCC(O)COc1cccc2[nH]c3ccccc3c12 (stereo not drawn) [Carvedilol]
endpointValue: 2.07

====

- System: Danio rerio larvae (5 dpf)
- experimentNotes: difference in combined optomotor response to red, green and blue moving lines vs DMSO (percentage points); higher = stronger optomotor response than DMSO
- cond: 10 µM; exposure time 6 h
Structures can show the parent of a compound that is named as a salt.

compound: CN(C)CCC[C@@]1(c2ccc(F)cc2)OCc2cc(C#N)ccc21 [Escitalopram]
difference: 1.8
--
compound: O=c1[nH]cc(F)c(=O)[nH]1 [5-Fluorouracil]
difference: 0.269
--
compound: CC[N+](C)(C)c1cccc(O)c1 [Edrophonium (chloride)]
difference: 3.51
--
compound: Cc1nc2n(c(=O)c1CCN1CCC(c3noc4cc(F)ccc34)CC1)CCCC2 [Risperidone]
difference: -1.6
--
compound: COc1ccc(OC)c(C(O)CNC(=O)CN)c1 (stereo not drawn) [Midodrine (hydrochloride)]
difference: 5.44
--
compound: CC(=O)OCC(=O)[C@@]12N=C(C)O[C@@H]1C[C@H]1[C@@H]3CCC4=CC(=O)C=C[C@]4(C)[C@H]3[C@@H](O)C[C@@]12C [Deflazacort]
difference: 13.9
--
compound: CCN(CC)CCNC(=O)c1c(C)[nH]c(/C=C2\C(=O)Nc3ccc(F)cc32)c1C [Sunitinib (malate)]
difference: -0.123
--
compound: CN[C@H]1CC[C@@H](c2ccc(Cl)c(Cl)c2)c2ccccc21 [Sertraline (hydrochloride)]
difference: -15.1
--
compound: CC1(C)S[C@@H]2[C@H](NC(=O)[C@H](N)c3ccc(O)cc3)C(=O)N2[C@H]1C(=O)O [Amoxicillin (hydrate)]
difference: 8.79
--
compound: CC(=O)OCC(=O)[C@@]1(O)CC[C@H]2[C@@H]3CCC4=CC(=O)CC[C@]4(C)[C@@]3(F)[C@@H](O)C[C@@]21C [Fludrocortisone Acetate]
difference: 1.96
--
compound: Cc1[nH]c(=O)c(C#N)cc1-c1ccncc1 [Milrinone]
difference: 8.34
--
compound: C[C@](N)(Cc1ccc(O)cc1)C(=O)O [Metyrosine]
difference: -4.59
--
compound: O=C(O)CSc1nnc(Br)n1-c1ccc(C2CC2)c2ccccc12 [Lesinurad]
difference: 2.41

====

- Test system: Danio rerio larvae (5 dpf)
- experimentNotes: difference in combined optomotor response to red, green and blue moving lines vs DMSO (percentage points); higher = stronger optomotor response than DMSO
- cond: 10 µM; exposure time 6 h
Structures can show the parent of a compound that is named as a salt.
As shown below, each of these molecules has a reported difference value.
valueType: difference

molecule: CC(=O)NC[C@H]1CN(c2ccc(N3CCOCC3)c(F)c2)C(=O)O1 [Linezolid]
endpointValue: 0.137

molecule: CC1=NN(c2ccc(C)c(C)c2)C(=O)/C1=N\Nc1cccc(-c2cccc(C(=O)O)c2)c1O [Eltrombopag]
endpointValue: -0.694

molecule: O=C(NCC1CCCCN1)c1cc(OCC(F)(F)F)ccc1OCC(F)(F)F (configuration not stated) [Flecainide (acetate)]
endpointValue: -18.8

molecule: O=C(O)c1cc(-c2ccc(F)cc2F)ccc1O [Diflunisal]
endpointValue: 6.8

molecule: COc1cc(C)c(/C=C/C(C)=C/C=C/C(C)=C/C(=O)O)c(C)c1C [Acitretin]
endpointValue: -20.9

molecule: C[C@]12CC[C@@H]3c4ccc(O)cc4CC[C@H]3[C@@H]1CC[C@@H]2O [17β-Estradiol]
endpointValue: -11.6

molecule: Cc1ccc(S(=O)(=O)NC(=O)NN2CCCCCC2)cc1 [Tolazamide]
endpointValue: 9.69

molecule: C#C[C@]1(O)CC[C@H]2[C@@H]3CCC4=CC(=O)CC[C@@H]4[C@H]3C(=C)C[C@@]21CC [Etonogestrel]
endpointValue: 10.4

molecule: CC(=O)OCC(=O)[C@@]12OC(C)(C)O[C@@H]1C[C@H]1[C@@H]3C[C@H](F)C4=CC(=O)C=C[C@]4(C)[C@@]3(F)[C@@H](O)C[C@@]12C [Fluocinonide]
endpointValue: 0.257

molecule: Cc1nnc(C(C)C)n1C1C[C@H]2CC[C@@H](C1)N2CC[C@H](NC(=O)C1CCC(F)(F)CC1)c1ccccc1 (stereo in doubt) [Maraviroc]
endpointValue: 4.5

molecule: COc1cc(NC(C)CCCN)c2ncccc2c1 (configuration not stated) [Primaquine (phosphate)]
endpointValue: -0.724

molecule: Nc1ncn([C@@H]2O[C@H](CO)[C@@H](O)[C@H]2O)c(=O)n1 [5-Azacytidine]
endpointValue: 0.0811

molecule: CN1CC(=O)N2[C@H](c3ccc4c(c3)OCO4)c3[nH]c4ccccc4c3C[C@@H]2C1=O [Tadalafil]
endpointValue: 6.23

molecule: O=C(CCCN1CCC(O)(c2ccc(Cl)cc2)CC1)c1ccc(F)cc1 [Haloperidol]
endpointValue: -5.9

molecule: CCCCCCOC(=O)NC(=N)c1ccc(NCc2nc3cc(C(=O)N(CCC(=O)OCC)c4ccccn4)ccc3n2C)cc1 [Dabigatran etexilate]
endpointValue: 2.07

molecule: C=C[C@]1(C)C[C@@H](OC(=O)CS[C@@H]2C[C@H]3CC[C@@H](C2)N3C)[C@]2(C)[C@H](C)CC[C@]3(CCC(=O)[C@H]32)[C@@H](C)[C@@H]1O [Retapamulin]
endpointValue: 5.67

molecule: N#Cc1ccc2[nH]cc(CCCCN3CCN(c4ccc5oc(C(N)=O)cc5c4)CC3)c2c1 [Vilazodone (hydrochloride)]
endpointValue: -4.96

molecule: N=C(N)NCCCC[C@@H]1NC(=O)CCSSC[C@@H](C(N)=O)NC(=O)[C@@H]2CCCN2C(=O)[C@H](Cc2c[nH]c3ccccc23)NC(=O)[C@H](CC(=O)O)NC(=O)CNC1=O [Eptifibatide]
endpointValue: 2.85

molecule: CC(=O)[C@@]1(O)CC[C@H]2[C@@H]3C[C@H](C)C4=CC(=O)C=C[C@]4(C)[C@@]3(F)[C@@H](O)C[C@@]21C [Fluorometholone]
endpointValue: 1.57

molecule: C[C@H](N[C@@H](CCc1ccccc1)C(=O)O)C(=O)N1CCC[C@H]1C(=O)O [Enalaprilat (hydrate)]
endpointValue: 1.55

molecule: CNCC[C@@H](Oc1ccccc1C)c1ccccc1 [Atomoxetine (hydrochloride)]
endpointValue: -0.351

molecule: C[C@@H]1NC(=O)[C@@H](N)CNC(=O)[C@H](C2CCNC(=N)N2)NC(=O)/C(=C/NC(N)=O)NC(=O)[C@H](CNC(=O)CC(N)CCCN)NC1=O.N=C1NCC[C@H]([C@@H]2NC(=O)/C(=C/NC(N)=O)NC(=O)[C@H](CNC(=O)C[C@@H](N)CCCN)NC(=O)[C@H](CO)NC(=O)[C@@H](N)CNC2=O)N1 [Capreomycin (sulfate)]
endpointValue: 3.54

====

- System: Danio rerio larvae (5 dpf)
- experimentNotes: difference in combined optomotor response to red, green and blue moving lines vs DMSO (percentage points); higher = stronger optomotor response than DMSO
- cond: 10 µM; exposure time 6 h
Structures can show the parent of a compound that is named as a salt.

compound: Cc1ncc([N+](=O)[O-])n1CC(C)O (stereo unspecified) [Secnidazole]
difference: 6.66
//
compound: CCN(CC)C(=S)SSC(=S)N(CC)CC [Disulfiram]
difference: -9.71
//
compound: OC[C@H]1NC[C@H](O)[C@@H](O)[C@H]1O [1-Deoxygalactonojirimycin (hydrochloride)]
difference: 3.06
//
compound: CNC(=C[N+](=O)[O-])NCCSCc1ccc(CN(C)C)o1 [Ranitidine (hydrochloride)]
difference: 7.87
//
compound: Nc1nc(O)c2ncn(CCC(CO)CO)c2n1 [Penciclovir]
difference: 11.3
//
compound: Cc1cc2nc3c(=O)[nH]c(=O)nc-3n(C[C@H](O)[C@H](O)[C@H](O)COP(=O)(O)O)c2cc1C [Riboflavin 5'-monophosphate (sodium salt hydrate)]
difference: -0.41
